Values compiled from ChEMBL document CHEMBL4196073.

measurement target: Adenosine receptor A2a (Homo sapiens)
Sequence (P29274 whole entry): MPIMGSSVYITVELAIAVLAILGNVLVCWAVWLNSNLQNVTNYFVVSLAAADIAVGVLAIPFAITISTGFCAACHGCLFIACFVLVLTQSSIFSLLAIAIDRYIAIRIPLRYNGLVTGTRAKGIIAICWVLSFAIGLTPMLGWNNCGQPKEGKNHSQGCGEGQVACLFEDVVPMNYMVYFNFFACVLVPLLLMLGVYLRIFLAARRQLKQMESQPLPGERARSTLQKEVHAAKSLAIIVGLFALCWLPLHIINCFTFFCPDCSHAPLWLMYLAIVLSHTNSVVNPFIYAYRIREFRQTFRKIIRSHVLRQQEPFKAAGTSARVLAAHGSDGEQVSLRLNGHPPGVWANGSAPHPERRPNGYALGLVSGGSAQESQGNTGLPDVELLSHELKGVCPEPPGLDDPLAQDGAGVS
experiment summary: Displacement of [3H]-ZM241385 from human adenosine A2A receptor expressed in CHO cell membranes at 1 uM after 60 mins by scintillation counting analysis
Please use true (1) whenever inhibition is not below 3%, and false (0) whenever it is.

Incoming: Exam item: decide whether the reported inhibition for N#Cc1c(N)nc(SCC(=O)NO)c(C#N)c1-c1ccc(OCC2CC2)cc1 is at least 3%.
Outgoing: false (0)

Incoming: Exam item: decide whether the reported inhibition for CCOc1ccc(-c2c(C#N)c(N)nc(SCC(=O)NC)c2C#N)cc1 is at least 3%.
Outgoing: true (1)

Incoming: Exam item: decide whether the reported inhibition for N#Cc1c(N)nc(SCC(N)=O)c(C#N)c1-c1ccc(OCC2CC2)cc1 is at least 3%.
Outgoing: false (0)

Incoming: Exam item: decide whether the reported inhibition for N#Cc1c(N)nc(SCC(=O)NCO)c(C#N)c1-c1ccc(OCC2CC2)cc1 is at least 3%.
Outgoing: false (0)

Incoming: Exam item: decide whether the reported inhibition for N#Cc1c(N)nc(SCc2cccc(C(N)=O)c2)c(C#N)c1-c1ccc(OCC2CC2)cc1 is at least 3%.
Outgoing: true (1)

Incoming: Exam item: decide whether the reported inhibition for CNC(=O)CSc1nc(N)c(C#N)c(-c2ccc(OCC3CC3)cc2)c1C#N is at least 3%.
Outgoing: false (0)

Incoming: Exam item: decide whether the reported inhibition for C=CCOc1ccc(-c2c(C#N)c(N)nc(SCC(N)=O)c2C#N)cc1 is at least 3%.
Outgoing: true (1)

Incoming: Exam item: decide whether the reported inhibition for COC(=O)c1cccc(CSc2nc(N)c(C#N)c(-c3ccc(OCC4CC4)cc3)c2C#N)c1 is at least 3%.
Outgoing: false (0)

Incoming: Exam item: decide whether the reported inhibition for C=C(C)COc1ccc(-c2c(C#N)c(N)nc(SCC(N)=O)c2C#N)cc1 is at least 3%.
Outgoing: true (1)

###

Exercise: state measured inhibition for each of the compounds provided.
measurement target: Adenosine receptor A3 (Homo sapiens) (UniProt P0DMS8)
Sequence (P0DMS8 whole entry): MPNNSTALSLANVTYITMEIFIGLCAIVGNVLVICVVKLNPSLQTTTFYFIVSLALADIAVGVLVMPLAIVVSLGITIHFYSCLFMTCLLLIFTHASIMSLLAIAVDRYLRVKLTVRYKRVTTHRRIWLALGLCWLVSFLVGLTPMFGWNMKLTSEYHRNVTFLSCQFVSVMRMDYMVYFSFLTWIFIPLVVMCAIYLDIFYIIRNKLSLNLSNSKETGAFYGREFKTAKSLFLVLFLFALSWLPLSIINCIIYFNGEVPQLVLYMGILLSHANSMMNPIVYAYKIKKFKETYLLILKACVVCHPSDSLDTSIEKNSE
experiment summary: Displacement of [125I]-ABMECA from human adenosine A3 receptor expressed in CHO cell membranes at 1 uM after 120 mins by scintillation counting analysis
# output: numeric value plus its unit

The reported inhibition of the compound N#Cc1c(N)nc(SCc2csc(N)n2)c(C#N)c1-c1ccc(OCC2CC2)cc1 was 1%

The reported inhibition of the compound C=C(C)COc1ccc(-c2c(C#N)c(N)nc(SCC(N)=O)c2C#N)cc1 was 4%

The reported inhibition of the compound N#Cc1c(N)nc(SCc2cnc[nH]2)c(C#N)c1-c1ccc(OCC2CC2)cc1 was 1%

The reported inhibition of the compound CCOc1ccc(-c2c(C#N)c(N)nc(SCC(N)=O)c2C#N)cc1 was 20%

The reported inhibition of the compound CC(C)COc1ccc(-c2c(C#N)c(N)nc(SCC(N)=O)c2C#N)cc1 was 9%

The reported inhibition of the compound CNC(=O)CSc1nc(N)c(C#N)c(-c2ccc(OCC3CC3)cc2)c1C#N was 3%

The reported inhibition of the compound N#Cc1c(N)nc(SCc2ccn[nH]2)c(C#N)c1-c1ccc(OCC2CC2)cc1 was 6%

The reported inhibition of the compound N#Cc1c(N)nc(SCn2cncn2)c(C#N)c1-c1ccc(OCC2CC2)cc1 was 1%

The reported inhibition of the compound N#Cc1c(N)nc(SCC(=O)NO)c(C#N)c1-c1ccc(OCC2CC2)cc1 was 31%

The reported inhibition of the compound N#Cc1c(N)nc(SCc2ncn[nH]2)c(C#N)c1-c1ccc(OCC2CC2)cc1 was 1%

###

measurement target: Adenosine receptor A2a (Homo sapiens)
experiment summary: Displacement of [3H]-ZM241385 from human adenosine A2A receptor expressed in CHO cell membranes at 1 uM after 60 mins by scintillation counting analysis
Please use rule met whenever inhibition is not below 2%, and rule not met whenever it is.

Incoming: Exam item: decide whether the reported inhibition for C=CCOc1ccc(-c2c(C#N)c(N)nc(SCc3ccn[nH]3)c2C#N)cc1 is at least 2%.
Outgoing: rule met

Incoming: Exam item: decide whether the reported inhibition for N#Cc1c(N)nc(SCc2cnc[nH]2)c(C#N)c1-c1ccc(OCC2CC2)cc1 is at least 2%.
Outgoing: rule met

Incoming: Exam item: decide whether the reported inhibition for N#Cc1c(N)nc(SCn2cncn2)c(C#N)c1-c1ccc(OCC2CC2)cc1 is at least 2%.
Outgoing: rule not met

Incoming: Exam item: decide whether the reported inhibition for CCOc1ccc(-c2c(C#N)c(N)nc(SCC(N)=O)c2C#N)cc1 is at least 2%.
Outgoing: rule not met

Incoming: Exam item: decide whether the reported inhibition for CCOc1ccc(-c2c(C#N)c(N)nc(SCc3ccn[nH]3)c2C#N)cc1 is at least 2%.
Outgoing: rule met

Incoming: Exam item: decide whether the reported inhibition for N#Cc1c(N)nc(SCc2nnn[nH]2)c(C#N)c1-c1ccc(OCC2CC2)cc1 is at least 2%.
Outgoing: rule not met

Incoming: Exam item: decide whether the reported inhibition for COC(=O)CSc1nc(N)c(C#N)c(-c2ccc(OCC3CC3)cc2)c1C#N is at least 2%.
Outgoing: rule not met

###

measurement target: Adenosine receptor A2a (Homo sapiens)
experiment summary: Displacement of [3H]-ZM241385 from human adenosine A2A receptor expressed in CHO cell membranes at 1 uM after 60 mins by scintillation counting analysis
Exercise: state measured inhibition for each of the molecules provided.
# output: numeric value plus its unit

Simply: N#Cc1c(N)nc(SCc2nc3ccccc3[nH]2)c(C#N)c1-c1ccc(OCC2CC2)cc1 , Adenosine receptor A2a (Homo sapiens), inhibition = 6%

Simply: N#Cc1c(N)nc(SCc2ncn[nH]2)c(C#N)c1-c1ccc(OCC2CC2)cc1 , Adenosine receptor A2a (Homo sapiens), inhibition = 1%

Simply: N#Cc1c(N)nc(SCc2csc(N)n2)c(C#N)c1-c1ccc(OCC2CC2)cc1 , Adenosine receptor A2a (Homo sapiens), inhibition = 1%

Simply: N#Cc1c(N)nc(SCC2=NCCN2)c(C#N)c1-c1ccc(OCC2CC2)cc1 , Adenosine receptor A2a (Homo sapiens), inhibition = 14%

Simply: N#Cc1c(N)nc(SCC(N)=O)c(C#N)c1-c1ccc(OCC2CCC2)cc1 , Adenosine receptor A2a (Homo sapiens), inhibition = 5%

###

Exercise: state measured inhibition for each of the compounds provided.
measurement target: Adenosine receptor A1 (Homo sapiens) (UniProt P30542)
Sequence (whole entry): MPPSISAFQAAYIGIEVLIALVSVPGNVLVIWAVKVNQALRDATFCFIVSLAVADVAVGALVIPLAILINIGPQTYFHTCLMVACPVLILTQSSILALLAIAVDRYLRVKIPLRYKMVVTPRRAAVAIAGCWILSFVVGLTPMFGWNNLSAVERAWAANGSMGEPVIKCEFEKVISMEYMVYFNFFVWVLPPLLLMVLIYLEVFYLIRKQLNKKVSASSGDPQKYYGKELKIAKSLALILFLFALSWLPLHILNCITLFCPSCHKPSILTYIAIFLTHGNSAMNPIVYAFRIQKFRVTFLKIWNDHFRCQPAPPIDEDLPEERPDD
experiment summary: Displacement of [3H]DPCPX from human adenosine A1 receptor expressed in CHO cell membranes at 1 uM after 90 mins by scintillation counting analysis
Response body: numeric value in %, unit text excluded.

The reported inhibition of the compound N#Cc1c(N)nc(SCn2cncn2)c(C#N)c1-c1ccc(OCC2CC2)cc1 was 12

The reported inhibition of the compound N#Cc1c(N)nc(SCc2nnn[nH]2)c(C#N)c1-c1ccc(OCC2CC2)cc1 was 3

The reported inhibition of the compound N#Cc1c(N)nc(SCC(=O)NCO)c(C#N)c1-c1ccc(OCC2CC2)cc1 was 10

The reported inhibition of the compound N#Cc1c(N)nc(SCC(N)=O)c(C#N)c1-c1ccc(OCC2CC2)cc1 was 31

The reported inhibition of the compound N#Cc1c(N)nc2sc(C(N)=O)c(N)c2c1-c1ccc(OCC2CC2)cc1 was 19

The reported inhibition of the compound N#Cc1c(N)nc(SCc2cnc[nH]2)c(C#N)c1-c1ccc(OCC2CC2)cc1 was 1

The reported inhibition of the compound COC(=O)CSc1nc(N)c(C#N)c(-c2ccc(OCC3CC3)cc2)c1C#N was 23

The reported inhibition of the compound N#Cc1c(N)nc(SCc2nc3ccccc3[nH]2)c(C#N)c1-c1ccc(OCC2CC2)cc1 was 21

The reported inhibition of the compound CC(=O)Nc1ccc(-c2c(C#N)c(N)nc(SCC(N)=O)c2C#N)cc1 was 17

The reported inhibition of the compound N#Cc1c(N)nc(SCC(N)=O)c(C#N)c1-c1ccc(OCC2CCC2)cc1 was 1

The reported inhibition of the compound CNC(=O)CSc1nc(N)c(C#N)c(-c2ccc(OCC3CC3)cc2)c1C#N was 14

###

measurement target: Adenosine receptor A2b (Homo sapiens)
experiment summary: Agonist activity at human adenosine A2B receptor expressed in CHO cell membranes assessed as induction of cAMP accumulation at 1 uM by AlphaScreen assay relative to NECA
Type: functional, cell-based
Categories are assigned from the measured Efficacy using these intervals: bottom bin = under 10%, middle bin = from 10% up to 50%, top bin = 50% and over

Incoming: Using the reported Efficacy, which band applies to CCOc1ccc(-c2c(C#N)c(N)nc(SCc3ncc[nH]3)c2C#N)cc1 ?
Outgoing: top bin

Incoming: Using the reported Efficacy, which band applies to C=C(C)COc1ccc(-c2c(C#N)c(N)nc(SCC(N)=O)c2C#N)cc1 ?
Outgoing: bottom bin

Incoming: Using the reported Efficacy, which band applies to N#Cc1c(N)nc(SCC(N)=O)c(C#N)c1-c1ccc(OCC2CCC2)cc1 ?
Outgoing: bottom bin

Incoming: Using the reported Efficacy, which band applies to C=CCOc1ccc(-c2c(C#N)c(N)nc(SCC(N)=O)c2C#N)cc1 ?
Outgoing: middle bin

Incoming: Using the reported Efficacy, which band applies to N#Cc1c(N)nc(SCC(=O)NCO)c(C#N)c1-c1ccc(OCC2CC2)cc1 ?
Outgoing: top bin

Incoming: Using the reported Efficacy, which band applies to CCOc1ccc(-c2c(C#N)c(N)nc(SCC(=O)NC)c2C#N)cc1 ?
Outgoing: middle bin

Incoming: Using the reported Efficacy, which band applies to N#Cc1c(N)nc(SCC2=NCCN2)c(C#N)c1-c1ccc(OCC2CC2)cc1 ?
Outgoing: bottom bin

Incoming: Using the reported Efficacy, which band applies to N#Cc1c(N)nc(SCc2cccc(C(N)=O)c2)c(C#N)c1-c1ccc(OCC2CC2)cc1 ?
Outgoing: top bin

Incoming: Using the reported Efficacy, which band applies to N#Cc1c(N)nc(SCC(N)=O)c(C#N)c1-c1ccc(OCC2CC2)cc1 ?
Outgoing: top bin

Incoming: Using the reported Efficacy, which band applies to COC(=O)c1cccc(CSc2nc(N)c(C#N)c(-c3ccc(OCC4CC4)cc3)c2C#N)c1 ?
Outgoing: middle bin

Incoming: Using the reported Efficacy, which band applies to CC(C)COc1ccc(-c2c(C#N)c(N)nc(SCC(N)=O)c2C#N)cc1 ?
Outgoing: bottom bin

Incoming: Using the reported Efficacy, which band applies to CCOc1ccc(-c2c(C#N)c(N)nc(SCc3ccn[nH]3)c2C#N)cc1 ?
Outgoing: middle bin

Incoming: Using the reported Efficacy, which band applies to N#Cc1c(N)nc(SCc2cccnc2)c(C#N)c1-c1ccc(OCC2CC2)cc1 ?
Outgoing: bottom bin

Incoming: Using the reported Efficacy, which band applies to C=CCOc1ccc(-c2c(C#N)c(N)nc(SCc3ccn[nH]3)c2C#N)cc1 ?
Outgoing: bottom bin

Incoming: Using the reported Efficacy, which band applies to N#Cc1c(N)nc(SCc2csc(N)n2)c(C#N)c1-c1ccc(OCC2CC2)cc1 ?
Outgoing: middle bin

Incoming: Using the reported Efficacy, which band applies to N#Cc1c(N)nc(SCc2ncc[nH]2)c(C#N)c1-c1ccc(OCC2CC2)cc1 ?
Outgoing: top bin

Incoming: Using the reported Efficacy, which band applies to N#Cc1c(N)nc(SCc2ccn[nH]2)c(C#N)c1-c1ccc(OCC2CC2)cc1 ?
Outgoing: middle bin

Incoming: Using the reported Efficacy, which band applies to CNC(=O)CSc1nc(N)c(C#N)c(-c2ccc(OCC3CC3)cc2)c1C#N ?
Outgoing: top bin

Incoming: Using the reported Efficacy, which band applies to N#Cc1c(N)nc(SCc2nnn[nH]2)c(C#N)c1-c1ccc(OCC2CC2)cc1 ?
Outgoing: middle bin

Incoming: Using the reported Efficacy, which band applies to N#Cc1c(N)nc2sc(C(N)=O)c(N)c2c1-c1ccc(OCC2CC2)cc1 ?
Outgoing: bottom bin

Incoming: Using the reported Efficacy, which band applies to N#Cc1c(N)nc(SCn2cncn2)c(C#N)c1-c1ccc(OCC2CC2)cc1 ?
Outgoing: bottom bin

Incoming: Using the reported Efficacy, which band applies to COC(=O)CSc1nc(N)c(C#N)c(-c2ccc(OCC3CC3)cc2)c1C#N ?
Outgoing: bottom bin

Incoming: Using the reported Efficacy, which band applies to N#Cc1c(N)nc(SCC(=O)NO)c(C#N)c1-c1ccc(OCC2CC2)cc1 ?
Outgoing: middle bin

Incoming: Using the reported Efficacy, which band applies to CC(=O)Nc1ccc(-c2c(C#N)c(N)nc(SCC(N)=O)c2C#N)cc1 ?
Outgoing: top bin

Incoming: Using the reported Efficacy, which band applies to CCOc1ccc(-c2c(C#N)c(N)nc(SCC(N)=O)c2C#N)cc1 ?
Outgoing: top bin

Incoming: Using the reported Efficacy, which band applies to N#Cc1c(N)nc(SCc2nc3ccccc3[nH]2)c(C#N)c1-c1ccc(OCC2CC2)cc1 ?
Outgoing: middle bin
